// data source = patent US20240376214A1

Reported EC50 values for a set of binders
Biological target: T1, human c-Met (HGFR), full length, on the cell surface (human, UniProt P08581 25-1390)
T1 construct: Endogenous c-Met on human tumor cell lines MKN45, NCI-H596, PC-3 and HepG2; also called hepatocyte growth factor receptor; mesenchymal-epithelial transition factor
T1 sequence (P08581 25-1390 limits assumed): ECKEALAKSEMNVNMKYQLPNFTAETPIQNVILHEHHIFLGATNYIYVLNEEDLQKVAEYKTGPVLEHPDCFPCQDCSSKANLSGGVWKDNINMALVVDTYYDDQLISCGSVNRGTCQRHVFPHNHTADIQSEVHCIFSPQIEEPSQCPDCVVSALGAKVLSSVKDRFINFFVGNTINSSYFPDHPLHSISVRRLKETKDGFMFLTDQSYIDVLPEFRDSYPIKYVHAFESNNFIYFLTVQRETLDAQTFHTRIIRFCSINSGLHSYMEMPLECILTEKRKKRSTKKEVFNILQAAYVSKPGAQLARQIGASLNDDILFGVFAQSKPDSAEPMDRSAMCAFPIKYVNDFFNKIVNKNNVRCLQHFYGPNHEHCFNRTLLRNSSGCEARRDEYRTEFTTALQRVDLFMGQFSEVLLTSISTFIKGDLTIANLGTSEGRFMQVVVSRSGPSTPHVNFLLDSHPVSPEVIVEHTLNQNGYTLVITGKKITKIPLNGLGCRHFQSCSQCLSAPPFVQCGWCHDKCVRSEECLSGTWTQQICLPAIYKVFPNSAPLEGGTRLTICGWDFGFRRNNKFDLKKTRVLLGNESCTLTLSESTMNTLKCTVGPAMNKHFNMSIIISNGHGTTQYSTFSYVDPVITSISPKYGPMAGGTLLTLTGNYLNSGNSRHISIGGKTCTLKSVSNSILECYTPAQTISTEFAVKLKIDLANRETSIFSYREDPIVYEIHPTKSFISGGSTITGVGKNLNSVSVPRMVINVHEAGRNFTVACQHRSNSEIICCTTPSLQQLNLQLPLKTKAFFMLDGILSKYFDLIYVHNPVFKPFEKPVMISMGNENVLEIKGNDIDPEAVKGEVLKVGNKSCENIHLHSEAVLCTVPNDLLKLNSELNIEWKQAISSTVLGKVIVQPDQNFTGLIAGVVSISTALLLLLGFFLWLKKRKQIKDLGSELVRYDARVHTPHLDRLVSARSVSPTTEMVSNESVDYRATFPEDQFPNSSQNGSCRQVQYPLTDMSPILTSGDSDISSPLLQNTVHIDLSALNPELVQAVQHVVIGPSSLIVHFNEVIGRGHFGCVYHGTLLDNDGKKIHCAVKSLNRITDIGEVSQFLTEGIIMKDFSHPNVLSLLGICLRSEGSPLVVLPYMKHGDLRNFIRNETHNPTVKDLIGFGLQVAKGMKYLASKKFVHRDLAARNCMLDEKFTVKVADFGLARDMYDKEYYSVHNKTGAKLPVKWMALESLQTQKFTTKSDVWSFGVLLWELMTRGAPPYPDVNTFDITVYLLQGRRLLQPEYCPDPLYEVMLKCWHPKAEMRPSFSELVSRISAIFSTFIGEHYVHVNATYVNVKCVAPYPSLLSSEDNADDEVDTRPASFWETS
Test: flow cytometry, PC-3 cells pre-incubated with 50 ng/mL HGF
Source text: Cellular binding of the in total 75 humanized anti-c-Met antibodies (originating from the three selected chimeric antibodies) was studied in human c-Met-positive tumor cell lines MKN45, NCI-H596 and PC-3, rhesus c-Met-positive tumor cell line 4 MBr-5, and human c-Met-negative tumor cell line MDA-MB-175-VII. […] For analysis of the data, the Median Fluorescence Intensity (MFI) values were obtained.
Answer format: numeric, µg/mL implied, no suffix.

Examples from the recorded data:
For record mAb3a (antibody, human IgG1, kappa, V domains shown, Humanized IgG1 kappa, HC-41C, from wt/41C-chi-mAb3; also called humanized HC-41C antibody mAb3a) VH: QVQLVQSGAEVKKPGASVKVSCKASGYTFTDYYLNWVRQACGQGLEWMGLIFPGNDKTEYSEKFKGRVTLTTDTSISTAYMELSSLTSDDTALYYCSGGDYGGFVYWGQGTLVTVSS VL: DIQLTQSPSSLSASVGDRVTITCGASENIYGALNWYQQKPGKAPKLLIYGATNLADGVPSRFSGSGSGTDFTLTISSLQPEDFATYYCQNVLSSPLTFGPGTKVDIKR the listed EC50 is 0.07

For record mAb1a (antibody, human IgG1, kappa, V domains shown, Humanized IgG1 kappa, HC-41C, from wt/41C-chi-mAb1; also called humanized HC-41C antibody mAb1a; mAbla) VH: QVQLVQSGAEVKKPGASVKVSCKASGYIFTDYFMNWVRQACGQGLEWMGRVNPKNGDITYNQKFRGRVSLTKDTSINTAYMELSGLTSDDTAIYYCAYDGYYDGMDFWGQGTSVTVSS VL: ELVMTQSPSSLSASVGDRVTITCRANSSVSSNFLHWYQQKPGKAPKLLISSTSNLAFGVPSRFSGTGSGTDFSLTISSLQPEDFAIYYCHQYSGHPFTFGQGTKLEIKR the listed EC50 is 0.15

Next:
For record mAb3d (antibody, human IgG1, kappa, V domains shown, Humanized IgG1 kappa, HC-41C, from wt/41C-chi-mAb3; also called humanized HC-41C antibody mAb3d) VH: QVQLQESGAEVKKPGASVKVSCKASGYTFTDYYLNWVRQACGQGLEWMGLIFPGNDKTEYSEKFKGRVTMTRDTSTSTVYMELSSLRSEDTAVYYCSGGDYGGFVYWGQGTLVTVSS VL: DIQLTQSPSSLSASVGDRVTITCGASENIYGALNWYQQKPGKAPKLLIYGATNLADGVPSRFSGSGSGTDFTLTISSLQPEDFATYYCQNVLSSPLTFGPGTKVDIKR the listed EC50 is 0.08
